system.tested: Human immunodeficiency virus type 1 reverse transcriptase (Human immunodeficiency virus 1)
test.method.notes: Compound ability to inhibit the production of HIV reverse transcriptase (RT) in preinfected PBL (peripheral blood lymphocytes) at 14 days at a concentration 5 uM
Assay type: functional
Give Activity (c.p.m. 50ul-1) for every item shown.
Number, no unit, nothing else.

So what does the record say about Activity (c.p.m. 50ul-1) for Cc1cn([C@H]2C[C@H](N=[N+]=[N-])[C@@H](CO)O2)c(=O)[nH]c1=O [ZIDOVUDINE] ?
302

Can you check "Cc1cn([C@H]2C[C@H](N=[N+]=[N-])[C@@H](COP(=O)(O)OCCO[C@H]3O[C@H](CO)[C@@H](O)[C@H](O)[C@@H]3O)O2)c(=O)[nH]c1=O" next?
471

Further, for Cc1cn([C@H]2C[C@H](N=[N+]=[N-])[C@@H](COP(=O)(O)OC[C@H]3OC(O)[C@@H](O)[C@@H](O)[C@@H]3O)O2)c(=O)[nH]c1=O (stereo partly specified) ?
4130

Now try CCCCCCCCCCCCCCCCOP(=O)(OC[C@H]1OC(O)[C@H](O)[C@@H](O)[C@@H]1O)OC[C@H]1OC(n2cc(C)c(=O)[nH]c2=O)C[C@@H]1N=[N+]=[N-] (stereo partly specified) .
157000

What would you report for CCCCCCCCCCCCCCCCOP(=O)(OC[C@H]1OC(O)[C@@H](O)[C@@H](O)[C@@H]1O)OC[C@H]1OC(n2cc(C)c(=O)[nH]c2=O)C[C@@H]1N=[N+]=[N-] (stereo partly specified) ?
58300

Do the same for Cc1cn([C@H]2C[C@H](N=[N+]=[N-])[C@@H](COP(=O)(O)OC[C@H]3OC(O)[C@H](O)[C@@H](O)[C@@H]3O)O2)c(=O)[nH]c1=O (stereo partly specified) please
732

----------
system.tested: Human immunodeficiency virus type 1 reverse transcriptase (Human immunodeficiency virus 1)
test.method.notes: Percent inhibition evaluated for anti-RT activity at 9 days of culture
Type: functional
Set-up: concentration or dose not given beside the values
test.settings: concentration not given here
quantity.name: inhibition (%)
Give your result in % as a bare value.

Query: inhibition; subject: CCCCCCCCCCCCCCCCOP(=O)(OC[C@H]1OC(O)[C@H](O)[C@@H](O)[C@@H]1O)OC[C@H]1OC(n2cc(C)c(=O)[nH]c2=O)C[C@@H]1N=[N+]=[N-] (some centres not stated)
58

Likewise for Cc1cn([C@H]2C[C@H](N=[N+]=[N-])[C@@H](COP(=O)(O)OC[C@H]3OC(O)[C@@H](O)[C@@H](O)[C@@H]3O)O2)c(=O)[nH]c1=O (some centres not stated) ?
0

Now consider "Cc1cn([C@H]2C[C@H](N=[N+]=[N-])[C@@H](COP(=O)(O)OCCO[C@H]3O[C@H](CO)[C@@H](O)[C@H](O)[C@@H]3O)O2)c(=O)[nH]c1=O" and answer again.
0

Further, for CCCCCCCCCCCCCCCCOP(=O)(OC[C@H]1OC(O)[C@@H](O)[C@@H](O)[C@@H]1O)OC[C@H]1OC(n2cc(C)c(=O)[nH]c2=O)C[C@@H]1N=[N+]=[N-] (some centres not stated) ?
68

Same question, CCCCCCCCCCCCCCCCOP(=O)(OCCO[C@H]1O[C@H](CO)[C@@H](O)[C@H](O)[C@@H]1O)OCC1OC(n2cc(C)c(=O)[nH]c2=O)CC1N=[N+]=[N-] (some centres not stated) this time
0

Also need "Cc1cn([C@H]2C[C@H](N=[N+]=[N-])[C@@H](CO)O2)c(=O)[nH]c1=O" , thanks.
76

Similarly, Cc1cn([C@H]2C[C@H](N=[N+]=[N-])[C@@H](COP(=O)(O)OC[C@H]3OC(O)[C@H](O)[C@@H](O)[C@@H]3O)O2)c(=O)[nH]c1=O (some centres not stated) ?
10
